Assay: Cmax in ICR mouse at 5 mg/kg, po measured up to 24 hrs by LC/MS/MS analysis
Assay type: ADME, organism-based
Design: dose 5 mg/kg, time < 24 hrs, route po
Conditions: in vivo
Result Type: Cmax (ng/mL)
Please reply with the bare figure in ng/mL and do not write the unit itself.

Exercise: I have this molecule here, `CC(F)(F)c1cc(Cl)ccc1-c1sc2c(ccc3[nH]ncc32)c1Oc1ccc(OC2CN(CCCF)C2)cc1` , and I need its recorded Cmax.
Key: 768

====

Experiment: Elimination half life in ICR mouse at 2 mg/kg, iv measured up to 24 hrs by LC/MS/MS analysis
Format: ADME, organism-based
Settings: in vivo, read-out: beta t1/2 (converted)
Result Type: half-life (h)
Please reply with the bare figure in h and do not write the unit itself.

Exercise: I have this compound here, `CC(F)(F)c1cc(Cl)ccc1-c1sc2c(ccc3[nH]ncc32)c1Oc1ccc(OC2CN(CCCF)C2)cc1` , and I need its recorded half-life.
Key: 4.6

====

Assay: MRT in ICR mouse at 5 mg/kg, po measured up to 24 hrs by LC/MS/MS analysis
Type: ADME, organism-based
Settings: in vivo
Result Type: MRT (h)
Please reply with the bare figure in h and do not write the unit itself.

Exercise: I have this compound here, `CC(F)(F)c1cc(Cl)ccc1-c1sc2c(ccc3[nH]ncc32)c1Oc1ccc(OC2CN(CCCF)C2)cc1` , and I need its recorded MRT.
Key: 8.2

====

Test: AUC (0 to t) in Sprague-Dawley rat at 5 mg/kg, po measured up to 24 hrs by LC/MS/MS analysis
Assay type: ADME, organism-based
Design: time < 24 hrs, dose 5 mg/kg, route po
Settings: in vivo
Result Type: AUC(0-t) at 24 h (ng·h/mL)
Please reply with the bare figure in ng·h/mL and do not write the unit itself.

Exercise: I have this compound here, `CC(F)(F)c1cc(-c2sc3cc(O)ccc3c2Oc2ccc(/C=C/C(=O)O)cc2)ccc1F` , and I need its recorded AUC(0-t) at 24 h.
Key: 585

====

Assay: AUC (0 to t) in ICR mouse at 5 mg/kg, po measured up to 24 hrs by LC/MS/MS analysis
Assay type: ADME, organism-based
Set-up: time < 24 hrs, dose 5 mg/kg, route po
Details: in vivo
Result Type: AUC(0-t) at 24 h (ng·h/mL)
Please reply with the bare figure in ng·h/mL and do not write the unit itself.

Exercise: I have this compound here, `CC(F)(F)c1cc(Cl)ccc1-c1sc2c(ccc3[nH]ncc32)c1Oc1ccc(OC2CN(CCCF)C2)cc1` , and I need its recorded AUC(0-t) at 24 h.
Key: 7710

====

Test: Drug concentration in rat liver at 20 mg/kg, po measured after 2 hrs
Type: ADME, organism-based
Settings: read-out: Ct
Result Type: concentration at 2 h (µg/mL)
Please reply with the bare figure in µg/mL and do not write the unit itself.

Exercise: I have this molecule here, `CC(F)(F)c1cc(Cl)ccc1-c1sc2c(ccc3[nH]ncc32)c1Oc1ccc(OC2CN(CCCF)C2)cc1` , and I need its recorded concentration at 2 h.
Key: 212

====

Biological target: Voltage-gated inwardly rectifying potassium channel KCNH2 (Homo sapiens, UniProt Q12809)
Sequence (Q12809 whole entry): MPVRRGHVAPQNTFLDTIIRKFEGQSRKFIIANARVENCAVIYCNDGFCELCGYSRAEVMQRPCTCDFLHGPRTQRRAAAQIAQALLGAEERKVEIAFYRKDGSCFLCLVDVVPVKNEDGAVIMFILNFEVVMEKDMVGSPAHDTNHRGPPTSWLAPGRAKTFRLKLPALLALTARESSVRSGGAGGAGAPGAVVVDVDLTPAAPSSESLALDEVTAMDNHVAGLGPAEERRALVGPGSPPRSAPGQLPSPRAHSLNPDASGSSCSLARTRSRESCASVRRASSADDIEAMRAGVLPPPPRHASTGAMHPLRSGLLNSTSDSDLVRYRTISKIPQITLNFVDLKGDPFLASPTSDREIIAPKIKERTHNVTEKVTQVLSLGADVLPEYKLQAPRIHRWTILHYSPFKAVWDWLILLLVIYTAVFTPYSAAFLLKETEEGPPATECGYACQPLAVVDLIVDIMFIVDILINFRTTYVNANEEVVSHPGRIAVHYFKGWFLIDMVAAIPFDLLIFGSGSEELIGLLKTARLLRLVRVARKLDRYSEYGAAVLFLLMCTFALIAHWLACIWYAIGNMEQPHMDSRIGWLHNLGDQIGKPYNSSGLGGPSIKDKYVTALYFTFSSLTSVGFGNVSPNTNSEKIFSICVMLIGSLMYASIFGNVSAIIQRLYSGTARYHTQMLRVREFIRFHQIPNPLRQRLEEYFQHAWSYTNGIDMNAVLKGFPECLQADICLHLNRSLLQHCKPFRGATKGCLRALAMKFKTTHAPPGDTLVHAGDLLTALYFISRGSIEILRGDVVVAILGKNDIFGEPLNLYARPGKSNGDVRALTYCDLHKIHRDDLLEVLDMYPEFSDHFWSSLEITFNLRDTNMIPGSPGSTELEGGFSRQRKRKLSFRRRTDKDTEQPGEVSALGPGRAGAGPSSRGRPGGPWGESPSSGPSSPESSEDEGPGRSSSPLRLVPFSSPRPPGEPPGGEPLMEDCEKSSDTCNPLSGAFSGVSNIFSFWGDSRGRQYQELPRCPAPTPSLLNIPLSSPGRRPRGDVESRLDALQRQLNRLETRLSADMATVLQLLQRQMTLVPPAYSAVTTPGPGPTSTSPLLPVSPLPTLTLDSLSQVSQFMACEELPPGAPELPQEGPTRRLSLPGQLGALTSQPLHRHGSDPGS
Experiment: Inhibition of human ERG potassium channel expressed in CHO cells by patch-clamp assay
Overview of recorded pIC50 for various compounds
Keep in mind that pIC50 stands for -log10 of concentration in molar terms.

Illustrative cases are given below, each with its answer.
Exercise: I have this compound here, `COc1cc(Oc2c(-c3ccc(F)cc3C(C)(F)F)sc3c2ccc2[nH]ncc23)ccc1NC1CN(CCCF)C1` , and I need its recorded pIC50.
Key: 4.94

Exercise: I have this compound here, `CC(F)(F)c1cc(F)c(F)cc1-c1sc2c(ccc3[nH]ncc32)c1Oc1ccc(NC2CN(CCCF)C2)cc1` , and I need its recorded pIC50.
Key: 5.13

Exercise: I have this compound here, `COc1cc(Oc2c(-c3cc(F)c(F)cc3C(C)(F)F)sc3c2ccc2[nH]ncc23)ccc1NC1CN(CCCF)C1` , and I need its recorded pIC50.
Key: 4.81

Exercise: I have this compound here, `CC(F)(F)c1cc(F)ccc1-c1sc2c(ccc3[nH]ncc32)c1Oc1ccc(NC2CN(CCCF)C2)c(F)c1` , and I need its recorded pIC50.
Key: 4.56

More entries:
Exercise: I have this compound here, `CC(C)(F)c1cc(F)ccc1-c1sc2c(ccc3[nH]ncc32)c1Oc1ccc(NC2CN(CCCF)C2)cc1` , and I need its recorded pIC50.
Key: 5.21

====

Experiment: Clearance in ICR mouse at 2 mg/kg, iv measured up to 24 hrs by LC/MS/MS analysis
Assay type: ADME, organism-based
Conditions: in vivo
Result Type: clearance

Exercise: I have this molecule here, `CC(F)(F)c1cc(Cl)ccc1-c1sc2c(ccc3[nH]ncc32)c1Oc1ccc(OC2CN(CCCF)C2)cc1` , and I need its recorded clearance.
Key: 0.42 L/h/kg

====

Assay: Tmax in ICR mouse at 5 mg/kg, po measured up to 24 hrs by LC/MS/MS analysis
Format: ADME, organism-based
Settings: in vivo
Result Type: Tmax

Exercise: I have this compound here, `CC(F)(F)c1cc(Cl)ccc1-c1sc2c(ccc3[nH]ncc32)c1Oc1ccc(OC2CN(CCCF)C2)cc1` , and I need its recorded Tmax.
Key: 2.7 h

====

Test: Drug concentration in rat brain at 20 mg/kg, po measured after 2 hrs
Assay type: ADME, organism-based
Conditions: read-out: Ct
Result Type: concentration at 2 h (ng/mL)
Please reply with the bare figure in ng/mL and do not write the unit itself.

Exercise: I have this compound here, `CC(F)(F)c1cc(Cl)ccc1-c1sc2c(ccc3[nH]ncc32)c1Oc1ccc(OC2CN(CCCF)C2)cc1` , and I need its recorded concentration at 2 h.
Key: 442

====

Test: MRT in Sprague-Dawley rat at 10 mg/kg, po measured up to 24 hrs by LC/MS/MS analysis
Assay type: ADME, organism-based
Conditions: in vivo
Result Type: MRT (h)
Please reply with the bare figure in h and do not write the unit itself.

Exercise: I have this compound here, `CC(F)(F)c1cc(Cl)ccc1-c1sc2c(ccc3[nH]ncc32)c1Oc1ccc(OC2CN(CCCF)C2)cc1` , and I need its recorded MRT.
Key: 7

====

Assay: Ratio of drug concentration in rat liver to plasma at 20 mg/kg, po measured after 2 hrs
Result Type: Kp at 2 h

Exercise: I have this compound here, `CC(F)(F)c1cc(Cl)ccc1-c1sc2c(ccc3[nH]ncc32)c1Oc1ccc(OC2CN(CCCF)C2)cc1` , and I need its recorded Kp at 2 h.
Key: 34.9

Measured values drawn from ChEMBL document CHEMBL5154828 for this set.
